Biological target: human Chemokine like receptor 1 (Homo sapiens, UniProt Q99788)
Construct: host or cells: U2OS (Tango CMKLR1-bla U2OS)
Experiment: Activation of Tango CMKLR1-bla U2OS cells (beta-lactamase FRET reporter)
Format: cell-based
Conditions: determination by the method of Effect Embodiment 1; read-out: EC50
Numbered stars: 1 amine (or outer) side, 2 acyl side, 3 side chain; on linkers, the order of the positions; unused ones are H or OH. Square brackets hold non-standard residues; d marks the D form. Peptide text beside a SMILES is read from it. X6 = CCCN([C@@H](CC(C)C)C(=O)[*:2])[*:1]; 2Nal = N[C@@H](Cc1ccc2ccccc2c1)C(=O)O; dNMeY = CN[C@H](Cc1ccc(O)cc1)C(=O)O; Tic = O=C(O)[C@@H]1Cc2ccccc2CN1; NMeL = CN[C@@H](CC(C)C)C(=O)O; NMeS = CN[C@@H](CO)C(=O)O; Thz = O=C(O)[C@@H]1CSCN1
Measured endpoint: pEC50
Give bare numbers, as −log10 of the molar value.

compound="CCCN(C(=O)[C@H](Cc1ccccc1)NC(=O)[C@H](N)Cc1ccc(O)cc1)[C@@H](CC(C)C)C(=O)N1CCC[C@H]1C(=O)N[C@H](CO)C(=O)N[C@@H](CCC(N)=O)C(=O)N[C@@H](Cc1ccccc1)C(=O)N[C@H](C)C(=O)N1Cc2ccccc2C[C@H]1C(=O)N[C@@H](CO)C(=O)O [YW-184] (H-[dY]F[X6]P[dS]QF[dA][Tic]S-OH)" reported=7.80

Could you now consider this next compound?
May I ask what pEC50 has been recorded for CN[C@H](Cc1ccc(O)cc1)C(=O)N[C@@H](Cc1ccccc1)C(=O)N(C)[C@@H](CC(C)C)C(=O)N1CSC[C@H]1C(=O)N[C@H](CO)C(=O)N[C@@H](CCC(N)=O)C(=O)N[C@@H](Cc1ccc2ccccc2c1)C(=O)N[C@H](C)C(=O)N1Cc2ccccc2C[C@H]1C(=O)N(C)[C@@H](CO)C(=O)O [YW-125] (H-[dNMeY]F[NMeL][Thz][dS]Q[2Nal][dA][Tic][NMeS]-OH; N-terminus assumed) ?
9.22

###

Biological target: human Chemokine like receptor 1 (Homo sapiens)
Construct: host or cells: U2OS (Tango CMKLR1-bla U2OS)
Assay: Activation of Tango CMKLR1-bla U2OS cells (beta-lactamase FRET reporter)
Assay type: cell-based
Details: determination by the method of Effect Embodiment 1; read-out: EC50
Square brackets hold non-standard residues; d marks the D form. Peptide text beside a SMILES is read from it. 2Nal = N[C@@H](Cc1ccc2ccccc2c1)C(=O)O; dNMeY = CN[C@H](Cc1ccc(O)cc1)C(=O)O; NMeF = CN[C@@H](Cc1ccccc1)C(=O)O; Tic = O=C(O)[C@@H]1Cc2ccccc2CN1; dTic = O=C(O)[C@H]1Cc2ccccc2CN1; NMeL = CN[C@@H](CC(C)C)C(=O)O; NMeS = CN[C@@H](CO)C(=O)O; Aze = O=C(O)[C@@H]1CCN1
Entries whose EC50 is below 20 nM take met; entries at or above 20 nM take not met.

Known results for molecules:
molecule="CN[C@H](Cc1ccc(O)cc1)C(=O)N[C@@H](Cc1ccccc1)C(=O)N(C)[C@@H](CC(C)C)C(=O)N1CCC[C@H]1C(=O)N[C@H](CO)C(=O)N[C@@H](CCC(N)=O)C(=O)N[C@@H](Cc1ccccc1)C(=O)N[C@H](C)C(=O)N1Cc2ccccc2C[C@H]1C(=O)N[C@@H](CO)C(=O)O [YW-163] (H-[dNMeY]F[NMeL]P[dS]QF[dA][Tic]S-OH)" target_under_test="human Chemokine like receptor 1 (Homo sapiens)" classification=met
molecule="CC(C)C[C@@H](C(=O)N1CCC[C@H]1C(=O)N[C@H](CO)C(=O)N[C@@H](CCC(N)=O)C(=O)N[C@@H](Cc1ccccc1)C(=O)N[C@H](C)C(=O)N1Cc2ccccc2C[C@H]1C(=O)N(C)[C@@H](CO)C(=O)O)N(C)C(=O)[C@H](Cc1ccccc1)NC(=O)[C@H](N)Cc1ccc(O)cc1 [YW-166] (H-[dY]F[NMeL]P[dS]QF[dA][Tic][NMeS]-OH)" target_under_test="human Chemokine like receptor 1 (Homo sapiens)" classification=met
molecule="CN[C@H](Cc1ccc(O)cc1)C(=O)N[C@@H](Cc1ccccc1)C(=O)N(C)[C@@H](CC(C)C)C(=O)N1CCC[C@H]1C(=O)N[C@H](CO)C(=O)N[C@@H](CCC(N)=O)C(=O)N[C@@H](Cc1ccc2ccccc2c1)C(=O)N[C@H](C)C(=O)N1Cc2ccccc2C[C@H]1C(=O)N[C@@H](CO)C(=O)O [YW-167] (H-[dNMeY]F[NMeL]P[dS]Q[2Nal][dA][Tic]S-OH)" target_under_test="human Chemokine like receptor 1 (Homo sapiens)" classification=met
molecule="CC(C)C[C@H](NC(=O)[C@H](Cc1ccccc1)NC(=O)[C@H](N)Cc1ccc(O)cc1)C(=O)N1CCC[C@H]1C(=O)N[C@H](CO)C(=O)N[C@@H](CCC(N)=O)C(=O)N[C@@H](Cc1ccccc1)C(=O)N[C@H](C)C(=O)N1Cc2ccccc2C[C@@H]1C(=O)N[C@@H](CO)C(=O)O [YW-149] (H-[dY]FLP[dS]QF[dA][dTic]S-OH)" target_under_test="human Chemokine like receptor 1 (Homo sapiens)" classification="not met"
molecule="CC(C)C[C@H](NC(=O)[C@H](Cc1ccccc1)NC(=O)[C@H](N)Cc1ccc(O)cc1)C(=O)N1CC[C@H]1C(=O)N[C@H](CO)C(=O)N[C@@H](CCC(N)=O)C(=O)N[C@@H](Cc1ccccc1)C(=O)N[C@H](C)C(=O)N1Cc2ccccc2C[C@H]1C(=O)N[C@@H](CO)C(=O)O [YW-115] (H-[dY]FL[Aze][dS]QF[dA][Tic]S-OH)" target_under_test="human Chemokine like receptor 1 (Homo sapiens)" classification="not met"

Now consider a different molecule.
Strictly below 20 nM: is that where EC50 of CC(C)C[C@H](NC(=O)[C@H](Cc1ccccc1)N(C)C(=O)[C@H](N)Cc1ccc(O)cc1)C(=O)N1CCC[C@H]1C(=O)N[C@H](CO)C(=O)N[C@@H](CCC(N)=O)C(=O)N[C@@H](Cc1ccccc1)C(=O)N[C@H](C)C(=O)N1Cc2ccccc2C[C@H]1C(=O)N[C@@H](CO)C(=O)O [YW-104] (H-[dY][NMeF]LP[dS]QF[dA][Tic]S-OH) sits?
not met

###

Biological target: human Chemokine like receptor 1 (Homo sapiens)
Construct: host or cells: U2OS (Tango CMKLR1-bla U2OS)
Sequence (Q99788 1-373): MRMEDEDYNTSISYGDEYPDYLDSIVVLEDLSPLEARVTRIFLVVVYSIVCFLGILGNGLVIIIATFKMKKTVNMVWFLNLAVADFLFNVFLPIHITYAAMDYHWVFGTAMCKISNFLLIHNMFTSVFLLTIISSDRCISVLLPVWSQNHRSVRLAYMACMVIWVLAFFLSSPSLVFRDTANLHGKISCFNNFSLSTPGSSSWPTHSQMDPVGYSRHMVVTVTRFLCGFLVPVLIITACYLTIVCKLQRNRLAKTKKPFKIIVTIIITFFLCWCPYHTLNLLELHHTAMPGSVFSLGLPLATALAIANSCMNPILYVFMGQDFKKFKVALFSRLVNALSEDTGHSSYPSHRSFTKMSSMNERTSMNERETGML
Test: Activation of Tango CMKLR1-bla U2OS cells (beta-lactamase FRET reporter)
Type: cell-based
Conditions: determination by the method of Effect Embodiment 1; read-out: EC50
Square brackets hold non-standard residues; d marks the D form. Peptide text beside a SMILES is read from it. * marks the point of attachment. Pro(5R-Ph) = O=C(O)[C@@H]1CC[C@H](c2ccccc2)N1; 2Nal = N[C@@H](Cc1ccc2ccccc2c1)C(=O)O; Pentanoyl(5-Ph) = O=C(CCCCc1ccccc1)*; dNMeY = CN[C@H](Cc1ccc(O)cc1)C(=O)O; Tic = O=C(O)[C@@H]1Cc2ccccc2CN1; Gly(N-CH2CH2OH) = O=C(O)CNCCO; NMeL = CN[C@@H](CC(C)C)C(=O)O; d(hSer) = N[C@H](CCO)C(=O)O; NMeS = CN[C@@H](CO)C(=O)O; Pip = O=C(O)[C@@H]1CCCCN1; Thz = O=C(O)[C@@H]1CSCN1
EC50 class ranges: bottom bin (below 3 nM), middle bin (3 nM to below 10 nM), top bin (10 nM or more)

Known results for compounds:
compound="CC(C)C[C@H](NC(=O)[C@H](Cc1ccccc1)NC(=O)[C@H](N)Cc1ccc(O)cc1)C(=O)N1[C@@H](c2ccccc2)CC[C@H]1C(=O)N[C@H](CO)C(=O)N[C@@H](CCC(N)=O)C(=O)N[C@@H](Cc1ccccc1)C(=O)N[C@H](C)C(=O)N1Cc2ccccc2C[C@H]1C(=O)N[C@@H](CO)C(=O)O [YW-112] (H-[dY]FL[Pro(5R-Ph)][dS]QF[dA][Tic]S-OH)" classification="top bin"
compound="CC(C)C[C@H](NC(=O)[C@H](Cc1ccccc1)NC(=O)[C@H](N)Cc1ccc(O)cc1)C(=O)N1CCC[C@H]1C(=O)N[C@H](CO)C(=O)N[C@@H](CCC(N)=O)C(=O)N[C@@H](Cc1ccccc1)C(=O)N[C@H](C)C(=O)N1Cc2ccccc2C[C@H]1C(=O)N[C@@H](CO)C(N)=O [YW-189] (H-[dY]FLP[dS]QF[dA][Tic]S-NH2; N-terminus assumed)" classification="middle bin"

In plain terms, what class is CC(C)C[C@@H](C(=O)N1CCC[C@H]1C(=O)N[C@H](CO)C(=O)N[C@@H](CCC(N)=O)C(=O)N[C@@H](Cc1ccccc1)C(=O)N[C@H](C)C(=O)N1Cc2ccccc2C[C@H]1C(=O)N(CCO)CC(=O)O)N(C)C(=O)[C@H](Cc1ccccc1)NC(=O)[C@H](N)Cc1ccc(O)cc1 [YW-172] (H-[dY]F[NMeL]P[dS]QF[dA][Tic][Gly(N-CH2CH2OH)]-OH) ?
middle bin

In plain terms, what class is CC(C)C[C@H](NC(=O)[C@H](Cc1ccccc1)NC(=O)[C@@H](Cc1ccc(O)cc1)NC(=O)CCCCc1ccccc1)C(=O)N1CCC[C@H]1C(=O)N[C@H](CO)C(=O)N[C@@H](CCC(N)=O)C(=O)N[C@@H](Cc1ccccc1)C(=O)N[C@H](C)C(=O)N1Cc2ccccc2C[C@H]1C(=O)N[C@@H](CO)C(=O)O [YW-76] ({Pentanoyl(5-Ph)}-[dY]FLP[dS]QF[dA][Tic]S-OH) ?
top bin

In plain terms, what class is CC(C)C[C@H](NC(=O)[C@H](Cc1ccccc1)NC(=O)[C@H](N)Cc1ccc(O)cc1)C(=O)N1CCC[C@H]1C(=O)N[C@H](CO)C(=O)N[C@@H](CCC(N)=O)C(=O)N[C@@H](Cc1ccccc1)C(=O)N[C@H](C)C(=O)N1CCCC[C@H]1C(=O)N[C@@H](CO)C(=O)O [YW-90] (H-[dY]FLP[dS]QF[dA][Pip]S-OH) ?
top bin

In plain terms, what class is CC(C)C[C@H](NC(=O)[C@H](Cc1ccccc1)NC(=O)[C@H](N)Cc1ccc(O)cc1)C(=O)N1CCC[C@H]1C(=O)N[C@H](CO)C(=O)N[C@@H](CCC(N)=O)C(=O)N[C@@H](Cc1ccccc1)C(=O)N[C@H](C)C(=O)N1Cc2ccccc2C[C@H]1C(=O)N(C)[C@@H](CO)C(=O)O [YW-110] (H-[dY]FLP[dS]QF[dA][Tic][NMeS]-OH) ?
top bin

In plain terms, what class is CC(C)C[C@@H](C(=O)N1CCC[C@H]1C(=O)N[C@H](CCO)C(=O)N[C@@H](CCC(N)=O)C(=O)N[C@@H](Cc1ccccc1)C(=O)N[C@H](C)C(=O)N1Cc2ccccc2C[C@H]1C(=O)N[C@@H](CO)C(=O)O)N(C)C(=O)[C@H](Cc1ccccc1)NC(=O)[C@H](N)Cc1ccc(O)cc1 [YW-175] (H-[dY]F[NMeL]P[d(hSer)]QF[dA][Tic]S-OH; N-terminus assumed) ?
top bin

In plain terms, what class is CN[C@H](Cc1ccc(O)cc1)C(=O)N[C@@H](Cc1ccccc1)C(=O)N(C)[C@@H](CC(C)C)C(=O)N1CSC[C@H]1C(=O)N[C@H](CO)C(=O)N[C@@H](CCC(N)=O)C(=O)N[C@@H](Cc1ccccc1)C(=O)N[C@H](C)C(=O)N1Cc2ccccc2C[C@H]1C(=O)N(C)[C@@H](CO)C(=O)O [YW-124] (H-[dNMeY]F[NMeL][Thz][dS]QF[dA][Tic][NMeS]-OH) ?
bottom bin

In plain terms, what class is CC(C)C[C@@H](C(=O)N1CCC[C@H]1C(=O)N[C@H](CO)C(=O)N[C@@H](CCC(N)=O)C(=O)N[C@@H](Cc1ccccc1)C(=O)N[C@H](C)C(=O)N1Cc2ccccc2C[C@H]1C(=O)N[C@@H](CO)C(N)=O)N(C)C(=O)[C@H](Cc1ccccc1)NC(=O)[C@H](N)Cc1ccc(O)cc1 [YW-190] (H-[dY]F[NMeL]P[dS]QF[dA][Tic]S-NH2; N-terminus assumed) ?
bottom bin

In plain terms, what class is CN[C@H](Cc1ccc(O)cc1)C(=O)N[C@@H](Cc1ccccc1)C(=O)N(C)[C@@H](CC(C)C)C(=O)N1CCC[C@H]1C(=O)N[C@H](CO)C(=O)N[C@@H](CCC(N)=O)C(=O)N[C@@H](Cc1ccc2ccccc2c1)C(=O)N[C@H](C)C(=O)N1Cc2ccccc2C[C@H]1C(=O)N(C)[C@@H](CO)C(=O)O [YW-146] (H-[dNMeY]F[NMeL]P[dS]Q[2Nal][dA][Tic][NMeS]-OH) ?
bottom bin
